Biological target: Phospholipase D3 (PLD3) (Homo sapiens)
Sequence (Q8IV08 whole entry): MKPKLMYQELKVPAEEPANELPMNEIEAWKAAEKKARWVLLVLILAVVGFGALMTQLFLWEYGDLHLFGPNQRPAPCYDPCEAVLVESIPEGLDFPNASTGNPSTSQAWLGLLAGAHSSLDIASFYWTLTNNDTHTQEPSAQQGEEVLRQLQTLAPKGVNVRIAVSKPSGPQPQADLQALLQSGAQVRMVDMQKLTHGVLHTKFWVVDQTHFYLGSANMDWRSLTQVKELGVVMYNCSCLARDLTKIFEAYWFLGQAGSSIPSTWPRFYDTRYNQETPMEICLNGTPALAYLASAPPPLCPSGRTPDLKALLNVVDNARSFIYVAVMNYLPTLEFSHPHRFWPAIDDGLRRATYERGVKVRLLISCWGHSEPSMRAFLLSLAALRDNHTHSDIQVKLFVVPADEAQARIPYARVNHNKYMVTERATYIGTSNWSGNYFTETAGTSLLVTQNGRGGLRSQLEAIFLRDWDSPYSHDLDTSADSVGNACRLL
pIC50: −log10 of the molar value.
Observed Property: pIC50

* [O]=[V]([OH])([OH])[OH] [orthovanadate] | 5.00
